Reference source for all entries: ChEMBL document CHEMBL5236619

# study.system: Nuclear receptor subfamily 1 group I member 2 (Homo sapiens)
# Sequence (O75469 whole entry): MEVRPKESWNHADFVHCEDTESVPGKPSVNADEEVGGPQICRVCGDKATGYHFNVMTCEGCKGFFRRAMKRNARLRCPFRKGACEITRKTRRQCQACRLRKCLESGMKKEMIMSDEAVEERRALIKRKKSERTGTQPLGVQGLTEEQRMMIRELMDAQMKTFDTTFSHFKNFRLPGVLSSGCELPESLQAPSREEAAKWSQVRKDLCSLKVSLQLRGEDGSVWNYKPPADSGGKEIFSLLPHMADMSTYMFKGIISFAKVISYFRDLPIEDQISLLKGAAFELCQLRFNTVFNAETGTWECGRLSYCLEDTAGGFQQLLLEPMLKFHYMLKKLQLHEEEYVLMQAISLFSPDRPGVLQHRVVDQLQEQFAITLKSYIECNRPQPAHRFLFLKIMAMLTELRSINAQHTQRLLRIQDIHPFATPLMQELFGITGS
# protocol.text: Agonist activity at human PXR in human HepG2 cells co-expressing luciferase gene under control of CYP3A4 promoter assessed as transcriptional activation at 30 uM incubated for 24 hrs by luminescence based analysis
# Type: cell-based
# details: hepg2, 24 h
measured.endpoint: Activity

compound=COc1ccc(OC)c(-n2nnc(C(=O)Nc3cc(C(C)(C)C)ccc3O)c2C)c1 study_system="Nuclear receptor subfamily 1 group I member 2 (Homo sapiens)" recorded_measurement="Not Active"
compound="CCCC(C)Oc1ccc(C(C)(C)C)cc1NC(=O)c1nnn(-c2cc(OC)ccc2OC)c1C (racemic)" study_system="Nuclear receptor subfamily 1 group I member 2 (Homo sapiens)" recorded_measurement="Not Active"
compound=COc1ccc(OC)c(-n2nnc(C(=O)Nc3cc(N(C)C)cc(C(C)(C)C)c3)c2C)c1 study_system="Nuclear receptor subfamily 1 group I member 2 (Homo sapiens)" recorded_measurement="Not Active"
compound="CCCC(C)Oc1ccc(C(C)(C)C)cc1NC(=O)c1nnn(-c2cc(C)ccc2OC)c1C (racemic)" study_system="Nuclear receptor subfamily 1 group I member 2 (Homo sapiens)" recorded_measurement="Not Active"
compound=COc1ccc(OC)c(-n2nnc(C(=O)Nc3cccc(N(C)C)c3)c2C)c1 study_system="Nuclear receptor subfamily 1 group I member 2 (Homo sapiens)" recorded_measurement="Not Active"
compound=COc1ccc(OC)c(-n2nnc(C(=O)Nc3cc(C(C)(C)C)ccc3OCCCN3CCOCC3)c2C)c1 study_system="Nuclear receptor subfamily 1 group I member 2 (Homo sapiens)" recorded_measurement="Not Active"
compound=CCC[C@H](C)Oc1ccc(C(C)(C)C)cc1NC(=O)c1nnn(-c2cc(C)ccc2OC)c1C study_system="Nuclear receptor subfamily 1 group I member 2 (Homo sapiens)" recorded_measurement="Not Active"
compound=CCC[C@H](C)Oc1ccc(C(C)(C)C)cc1NC(=O)c1nnn(-c2cc(OC)ccc2OC)c1C study_system="Nuclear receptor subfamily 1 group I member 2 (Homo sapiens)" recorded_measurement="Not Active"
compound=CCCCOc1ccc(C(C)(C)C)cc1NC(=O)c1nnn(-c2cc(OC(F)(F)F)ccc2OC)c1C study_system="Nuclear receptor subfamily 1 group I member 2 (Homo sapiens)" recorded_measurement="Not Active"
compound=COc1ccc(OC)c(-n2nnc(C(=O)Nc3cccc(N4CCCCC4)c3)c2C)c1 study_system="Nuclear receptor subfamily 1 group I member 2 (Homo sapiens)" recorded_measurement="Not Active"
compound=CCCCOc1ccc(C(C)(C)C)cc1NC(=O)c1nnn(-c2cc(Br)ccc2OC)c1C study_system="Nuclear receptor subfamily 1 group I member 2 (Homo sapiens)" recorded_measurement="Not Active"
compound=CCCOc1ccc(C(C)(C)C)cc1NC(=O)c1nnn(-c2cc(OC)ccc2OC)c1C study_system="Nuclear receptor subfamily 1 group I member 2 (Homo sapiens)" recorded_measurement="Not Active"
compound=COc1ccc(OC)c(-n2nnc(C(=O)Nc3ccc(C(C)(C)C)cc3)c2C)c1 study_system="Nuclear receptor subfamily 1 group I member 2 (Homo sapiens)" recorded_measurement="Not Active"
compound=COc1ccc(OC)c(-n2nnc(C(=O)Nc3cccc(N4CCCC4)c3)c2C)c1 study_system="Nuclear receptor subfamily 1 group I member 2 (Homo sapiens)" recorded_measurement="Not Active"
compound=CCc1cccc(NC(=O)c2nnn(-c3cc(OC)ccc3OC)c2C)c1 study_system="Nuclear receptor subfamily 1 group I member 2 (Homo sapiens)" recorded_measurement="Not Active"
compound=CCOc1cc(NC(=O)c2nnn(-c3cc(OC)ccc3OC)c2C)nc(OCC)n1 study_system="Nuclear receptor subfamily 1 group I member 2 (Homo sapiens)" recorded_measurement="Not Active"
compound=COc1ccc(OC)c(-n2nnc(C(=O)Nc3cccc(-n4cccc4)c3)c2C)c1 study_system="Nuclear receptor subfamily 1 group I member 2 (Homo sapiens)" recorded_measurement="Not Active"
compound=COc1ccc(OC)c(-n2nnc(C(=O)Nc3cccc(N4CCN(C)CC4)c3)c2C)c1 study_system="Nuclear receptor subfamily 1 group I member 2 (Homo sapiens)" recorded_measurement="Not Active"
compound=COc1ccc(OC)c(-n2nnc(C(=O)Nc3cc(N)cc(C(C)(C)C)c3)c2C)c1 study_system="Nuclear receptor subfamily 1 group I member 2 (Homo sapiens)" recorded_measurement="Not Active"
